Data credit: ChEMBL document CHEMBL3784963

Measured pIC50 values are reported for all entries that follow.
method.summary: Cytotoxicity against human HGC27 cells assessed as growth inhibition after 72 hrs by MTT assay
Assay type: functional, cell-based
condition.context: HGC-27, 72 h
pIC50: −log10 of the molar value.

| structure.string | pIC50 |
| --- | --- |
| CCOC(=O)[C@]1(C)CCC[C@@]2(C)[C@@H]3CC[C@@]4(C)C[C@]3(CC[C@@H]21)[C@H](COC(C)=O)[C@H]4NC(C)=O | 4.69 |
| CCOC(=O)[C@]1(C)CCC[C@@]2(C)[C@@H]3CC[C@@]4(C)C[C@]3(CC[C@@H]21)C[C@H]4NC(=S)NNC(=O)c1ccccc1 | 4.58 |
| CCOC(=O)[C@]1(C)CCC[C@@]2(C)[C@@H]3CC[C@@]4(C)C[C@]3(CC[C@@H]21)[C@H](CO)[C@H]4NC(=S)Nc1ccccc1Br | 4.81 |
| CCOC(=O)[C@]1(C)CCC[C@@]2(C)[C@@H]3CC[C@@]4(C)C[C@]3(CC[C@@H]21)[C@H](CO)[C@H]4NC(=S)Nc1ccccc1F | 5.13 |
| CCOC(=O)[C@]1(C)CCC[C@@]2(C)[C@@H]3CC[C@@]4(C)C[C@]3(CC[C@@H]21)[C@H](CO)[C@@H]4N | 5.14 |
| CCOC(=O)[C@]1(C)CCC[C@@]2(C)[C@@H]3CC[C@@]4(C)C[C@]3(CC[C@@H]21)C[C@H]4N=C=S | 4.94 |

###

method.summary: Cytotoxicity against human JeKo1 cells assessed as growth inhibition after 72 hrs by MTT assay
Type: functional, cell-based
condition.context: JeKo-1, 72 h
Reported log10 of IC50 values are given for each entry in this list.
property.label: log10 of IC50 (log10 of the value in µM)

| structure.string | log10 of IC50 |
| --- | --- |
| CCOC(=O)[C@]1(C)CCC[C@@]2(C)[C@@H]3CC[C@@]4(C)C[C@]3(CC[C@@H]21)[C@H](CO)[C@H]4NC(=S)Nc1ccccc1F | 1.55 |
| CCOC(=O)[C@]1(C)CCC[C@@]2(C)[C@@H]3CC[C@@]4(C)C[C@]3(CC[C@@H]21)[C@H](CO)[C@H]4NC(=S)Nc1ccc(Cl)cc1 | 0.76 |
| CCOC(=O)[C@]1(C)CCC[C@@]2(C)[C@@H]3CC[C@@]4(C)C[C@]3(CC[C@@H]21)[C@H](CO)[C@H]4NC(=S)Nc1ccc(F)cc1 | 1.37 |
| C=C[C@]12CC[C@H]3[C@@](C)(CCC[C@@]3(C)C(=O)OCC)[C@@H]1CC[C@](C)(CN)C2 | 0.33 |
| C=C[C@]12CC[C@H]3[C@@](C)(CCC[C@@]3(C)C(=O)OCC)[C@@H]1CC[C@](C)(CNC(=S)Nc1ccccc1)C2 | 0.44 |

###

method.summary: Cytotoxicity against human HGC27 cells assessed as growth inhibition after 72 hrs by MTT assay
Type: functional, cell-based
condition.context: HGC-27, 72 h
pIC50: −log10 of the molar value.
property.label: pIC50

| structure.string | measured.value |
| --- | --- |
| CCOC(=O)[C@]1(C)CCC[C@@]2(C)[C@@H]3CC[C@@]4(C)C[C@]3(CC[C@@H]21)[C@H](CO)[C@H]4NC(=S)Nc1ccc(Br)cc1 | 5.53 |
| CCOC(=O)[C@]1(C)CCC[C@@]2(C)[C@@H]3CC[C@@]4(C)C[C@]3(CC[C@@H]21)C[C@H]4NC(=S)Nc1ccccc1 | 4.86 |
| CCOC(=O)[C@]1(C)CCC[C@@]2(C)[C@@H]3CC[C@@]4(C)C[C@]3(CC[C@@H]21)[C@H](CO)[C@H]4NC(=S)Nc1ccc(Cl)cc1 | 5.48 |
| C=C[C@]12CC[C@H]3[C@@](C)(CCC[C@@]3(C)C(=O)OCC)[C@@H]1CC[C@](C)(CNC(=S)Nc1ccccc1)C2 | 5.17 |
| CCOC(=O)[C@]1(C)CCC[C@@]2(C)[C@@H]3CC[C@@]4(C)C[C@]3(CC[C@@H]21)[C@H](CO)[C@H]4NC(=S)Nc1ccccc1[N+](=O)[O-] | 4.64 |
| CCOC(=O)[C@]1(C)CCC[C@@]2(C)[C@@H]3CC[C@@]4(C)C[C@]3(CC[C@@H]21)[C@H](CO)[C@H]4NC(=S)Nc1ccccc1 | 5.29 |
